Each recorded value in this set is attributed to the supplement of paper PMC11246515.

# reported total protein half-life in vivo; entries follow
Experiment: total protein half-life in vivo (active degradation + dilution); higher = more stable protein
Settings: wild type E. coli NCM3722; growth: C-lim chemostat; doubling time 6 h
Numbers only here, please. The scale is h.

[[record]]
seqtext = "MSDERYQQRQQRVKEKVDARVAQAQDERGIIIVFTGNGKGKTTAAFGTATRAVGHGKKVGVVQFIKGTWPNGERNLLEPHGVEFQVMATGFTWDTQNRESDTAACREVWQHAKRMLADSSLDMVLLDELTYMVAYDYLPLEEVVQALNERPHQQTVIITGRGCHRDILELADTVSELRPVKHAFDAGVKAQIGIDY [P0A9H5]"
recordedendpoint = "total protein half-life in vivo"
unit = "h"
datavalue = 5.05


Now for a further sequence.
Look up total protein half-life in vivo: MGKLTLLLLAILVWLQYSLWFGKNGIHDYTRVNDDVAAQQATNAKLKARNDQLFAEIDDLNGGQEALEERARNELSMTRPGETFYRLVPDASKRAQSAGQNNR [P0A6S5] 4.69
